test system: normal spleen cells / splenic T-lymphocytes (Con-A stimulated); assay: Con-A blastogenic response of normal spleen cells (3H-thymidine incorporation); type: cell-based, mouse (C57Bl/6); conditions: Con-A 4 ug/ml; compound 10 ug/ml; triplicates ± SD
Give Blastogenic response of normal spleen cells to Con-A for every item shown.

Below: 4 compounds and their reported Blastogenic response of normal spleen cells to Con-A.
{"columns": ["compound", "result"],
 "data": [
  ["CCCCCCCNC[C@H]1OC(C)(C)O[C@@H]2[C@H]3OC(C)(C)O[C@H]3O[C@@H]21", "32,032 ± 1,999 cpm"],
  ["CCCCCCCOC(C)C1OC2OC(C)(C)OC2C1OCCCN(C)C (centres unmarked)", "4,693 ± 1,930 cpm"],
  ["CCCCCCCCCCCNCC(O)C1OC2OC(C)(C)OC2C1O (centres unmarked)", "4,293 ± 3,517 cpm"],
  ["CCCCCCCNCC(O)C1OC2OC(C)(C)OC2C1OCCCCCCC (centres unmarked)", "7,789 ± 7,636 cpm"]
]}

Here is the next item to consider.
Request: Quick check: Blastogenic response of normal spleen cells to Con-A on normal spleen cells / splenic T-lymphocytes (Con-A stimulated), item CCCCCCCOC(C)C1OC2OC(C)(C)OC2C1O (centres unmarked) ?
Response: 92,190 ± 13,256 cpm
